Entries and their z-score of subpopulation abundance
# System: Saccharomyces cerevisiae BY4741 SeMeCo community
# experimental details: z-score of subpopulation abundance vs DMSO median, subpopulation auxotrophic for HUM; higher = larger share of this subpopulation than in DMSO controls
# setup conditions: 10 µM; 24 h; SM minimal medium; subpopulation (auxotrophy): HUM
Form: value (number only, do not type unit).

As a guide, the following entries are already answered.
>>> print(df.to_string())
                                   compound  endpoint_value
0  CN(C)CCc1c[nH]c2ccc(C[C@H]3COC(=O)N3)cc12 [Zolmitriptan]           -0.45
1  Cc1ccccc1OCC(O)CO (stereo not given) [Mephenesin]           -0.77
2      C#CCN[C@@H]1CCc2ccccc21 [Rasagiline]           -0.36
3  COc1cnc(NS(=O)(=O)c2ccc(N)cc2)nc1 [Sulfameter]            0.14

# input for lookup
Tell me the measured z-score of subpopulation abundance of CO/N=C(\C(=O)N[C@@H]1C(=O)N2C(C(=O)O)=C(CSc3nc(C)c(CC(=O)O)s3)CS[C@H]12)c1csc(N)n1 [Cefodizime Sodium] , please. -0.09
